Numbers sourced from patent US5808109A.

- ASSAY: Viability of effector cells by trypan blue exclusion
- Format: cell-based
- PROTOCOL CONDITIONS: human, peripheral blood mononuclear cells, 0.4 mM
ATTRIBUTE MEASURED: viability at 400 µM (%)
// return numeric value only (unit: %, not printed)

## Input Name the recorded viability at 400 µM for COc1ccc(C(=O)O)c2c1CC1(CCCCC1)O2 [Compound 11a] .
## Output 95

---

- ASSAY: Viability of effector cells by trypan blue exclusion
- Format: cell-based
- PROTOCOL CONDITIONS: human, peripheral blood mononuclear cells, 1.6 mM
ATTRIBUTE MEASURED: viability at 1600 µM (%)
Write the number in % without appending the unit.

## Input Fill in: viability at 1600 µM of COc1ccc(C(=O)O)c2c1CC1(CCCCC1)O2 [Compound 11a] is ___
## Output 95
